study-system: Retinoic acid receptor RXR-alpha (Homo sapiens, UniProt P19793)
Sequence (P19793 whole entry, the tested form may be a part): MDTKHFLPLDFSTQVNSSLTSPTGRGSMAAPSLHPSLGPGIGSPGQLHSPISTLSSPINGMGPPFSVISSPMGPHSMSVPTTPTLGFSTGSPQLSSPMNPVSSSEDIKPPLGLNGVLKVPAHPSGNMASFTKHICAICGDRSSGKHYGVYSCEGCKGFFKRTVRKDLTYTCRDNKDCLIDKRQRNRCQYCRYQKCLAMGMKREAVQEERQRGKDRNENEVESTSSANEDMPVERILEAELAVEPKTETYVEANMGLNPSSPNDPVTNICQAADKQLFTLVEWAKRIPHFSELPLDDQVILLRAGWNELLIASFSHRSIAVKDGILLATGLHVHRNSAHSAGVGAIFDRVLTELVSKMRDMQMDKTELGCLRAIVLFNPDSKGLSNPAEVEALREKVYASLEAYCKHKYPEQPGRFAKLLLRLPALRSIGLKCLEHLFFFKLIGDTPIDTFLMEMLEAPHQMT
protocol-description: Activity at RXRalpha by GAL4DNA cotransfection assay
assay-readout: EC50 (nM)

(I) CCN1C(=O)CC(C)(C)c2cc(C)c(-c3cc([C@@H]4C[C@H]4C(=O)O)ccc3OC(F)(F)F)cc21
(II) Cc1cc2c(cc1-c1cc(CCC(=O)O)ccc1OC(F)(F)F)N(CC(F)(F)F)C(=O)CC2(C)C
(III) CCN1C(=O)CC(C)(C)c2cc(C)c(-c3cc(C4CC4C(=O)O)ccc3OC(F)(F)F)cc21 (racemic)
(IV) CCN1C(=O)CC(C)(C)c2cc(C)c(-c3cc(/C=C(\C)C(=O)O)ccc3OC(F)(F)F)cc21
Order required: smallest reported EC50 first, largest last, for all molecules above. Answer format: the labels, in the requested order.
II, I, III, IV
(II: 1.4 nM, I: 2.3 nM, III: 19.2 nM, IV: 27.9 nM)
